Recorded growth for the following molecules
- Test system: SK-MEL-5 melanoma
- assay_overview: NCI-60 one-dose screen, 48 h (100 = growth as untreated, 0 = no growth, -100 = all killed)
- measurement_context: 10 µM unless noted
The panel holds about 83,000 compounds, 20% with a hit somewhere; the sample as a whole holds those more often. Active and inactive are the calls of the source. How the source made its calls: active means growth percent below 10; inactive means the rest.

Entry COC(=O)[C@@H](OC)[C@@H]1Cc2cc3cc(OC4CC(OC5CC(O)C(O)C(C)O5)C(O)C(C)O4)c(C)c(O)c3c(O)c2C(=O)[C@H]1OC1CC(OC2CC(OC3CC(C)(O)C(O)C(C)O3)C(O)C(C)O2)C(O)C(C)O1 (stereo partly drawn) — recorded growth = -69.5% (active)

Entry CN(C)C1CCN(C(=O)c2ccc(NC(=O)Nc3ccc(-c4nc(N5CCOCC5)nc(N5CCOCC5)n4)cc3)cc2)CC1 — recorded growth = -39.1% [2.5 µM] (active)

Entry Cc1ccc(NC(=O)c2ccc(CN3CCN(C)CC3)cc2)cc1Nc1nc(-c2cccnc2)cs1 — recorded growth = -0.29% (active)

Entry COC1CCC(N2C(=O)CNc3ncc(-c4ccc(C(C)(C)O)nc4)nc32)CC1 (stereo not drawn) — recorded growth = -45.2% (active)

Entry COc1ccc2c(CCCC(c3ccccc3)c3ccccc3)c3[n+](cc2c1OC)CCc1cc2c(cc1-3)OCO2 — recorded growth = -100% (active)

// data source = PubChem BioAssay (NCI)
